target: Beta Secretase enzyme (BACE1) (Homo sapiens); assay: In vitro enzymatic BACE FRET assay; type: biochemical; details: average IC50, enzyme assay; read-out: BACE1 FRET assay IC50
Sequence (P56817 46-501): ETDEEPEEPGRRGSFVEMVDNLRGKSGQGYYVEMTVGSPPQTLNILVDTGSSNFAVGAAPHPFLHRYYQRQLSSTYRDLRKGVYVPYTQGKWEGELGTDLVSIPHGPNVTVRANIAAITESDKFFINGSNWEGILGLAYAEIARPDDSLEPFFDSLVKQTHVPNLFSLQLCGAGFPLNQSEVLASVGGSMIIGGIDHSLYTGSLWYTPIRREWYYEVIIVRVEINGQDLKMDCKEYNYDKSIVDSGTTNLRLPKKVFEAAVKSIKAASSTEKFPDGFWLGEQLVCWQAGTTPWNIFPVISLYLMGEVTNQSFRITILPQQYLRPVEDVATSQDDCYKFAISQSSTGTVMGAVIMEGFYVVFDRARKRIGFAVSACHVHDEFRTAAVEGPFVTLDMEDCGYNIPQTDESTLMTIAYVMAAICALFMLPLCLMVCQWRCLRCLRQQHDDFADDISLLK
measurement_kind: IC50 (nM)
Write the number in nM without appending the unit.

Some entries whose results are on file:
>>> print(df.to_string())
                                   compound  readout_value
0  C[C@@]1(c2cc(Nc3nccc4cc(Cl)cnc34)ccc2F)CS(=O)(=O)C2(CCC2)C(N)=N1           1.15
1  Cc1ccc(Oc2ccc(F)c([C@]3(C)CS(=O)(=O)C(C)(C)C(N)=N3)c2)nc1           2260
2  COc1ccc(CSc2ccc(F)c([C@]3(C)CS(=O)(=O)C(C)(C)C(N)=N3)c2)cc1           1210
3  COc1ccnc(Oc2ccc(F)c([C@]3(C)CS(=O)(=O)C(C)(C)C(N)=N3)c2)n1            101
4  CCc1cc(Cl)cnc1C(=O)Nc1ccc(F)c([C@]2(C)CS(=O)(=O)C(C)(C)C(N)=N2)c1           1.81

Sure, the documented IC50 for CC1(C)C(N)=N[C@](C)(c2cc(Oc3cc(-c4ccc(Cl)cn4)ccn3)ccc2F)CS1(=O)=O is 807

Recorded IC50 (compound Cc1c(CNc2ccc(F)c([C@]3(C)CS(=O)(=O)C(C)(C)C(N)=N3)c2)nc2ccc(Cl)cn12 ): 2940

// IC50 value for COc1cnc2c(Nc3cnc(F)c([C@]4(C)CS(=O)(=O)C(C)(C)C(N)=N4)c3)nccc2n1 : 2.59

Lab note: measured IC50 of C[C@]1(c2cc(Nc3nccc4cc(C#N)cnc34)ccc2F)N=C(N)C2(CCC2)S(=O)(=O)C1F (stereo partly shown) was 0.58

The compound identified as CC1(C)C(N)=N[C@](C)(c2cc(Oc3nccc4nc(C(F)(F)F)cnc34)ccc2F)CS1(=O)=O registered its IC50 at 27.6

According to the records, this compound CC1(C)C(N)=N[C@](C)(c2cc(Nc3nccc4nc(OCC#N)cnc34)ccc2F)CS1(=O)=O displays IC50 of 2.87

Lab note: measured IC50 of CC1(C)C(N)=N[C@](CF)(c2cc(Nc3ncc(F)c4cc(Cl)cnc34)ccc2F)CS1(=O)=O was 0.31

Data point: CC1(C)C(N)=N[C@](C)(c2cc(NC(=O)c3cnc4ccccc4n3)ccc2F)CS1(=O)=O ; IC50 = 41.2

---

target: Cathepsin D (Cat D) (Homo sapiens, UniProt P07339); construct: Recombinant Cat D was expressed in CHO cells; made in house; host or cells: CHO cells; assay: In vitro enzymatic Cathepsin D (Cat D) FRET assay; format: biochemical; details: read-out: CatD IC50
Sequence (P07339 65-412, species assumed): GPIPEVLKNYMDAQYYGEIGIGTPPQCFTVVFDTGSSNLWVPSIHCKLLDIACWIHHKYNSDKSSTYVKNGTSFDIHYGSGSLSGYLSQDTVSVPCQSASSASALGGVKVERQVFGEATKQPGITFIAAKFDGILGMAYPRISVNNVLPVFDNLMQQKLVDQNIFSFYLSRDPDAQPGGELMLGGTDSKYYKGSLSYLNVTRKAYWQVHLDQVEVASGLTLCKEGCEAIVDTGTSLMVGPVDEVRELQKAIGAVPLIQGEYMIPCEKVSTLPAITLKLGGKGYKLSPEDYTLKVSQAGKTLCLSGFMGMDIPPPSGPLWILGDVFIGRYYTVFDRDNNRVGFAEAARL
pIC50: −log10 of the molar value.
pIC50 vs 4: at or above is YES, below is NO.

Exercise: Hi, just wondering whether C[C@]1(F)C(N)=N[C@](C)(c2cc(Nc3ncnc4cc(C#N)cnc34)ccc2F)CS1(=O)=O shows pIC50 of 4 or higher.
Key: YES

---

target: Cathepsin D (Cat D) (Homo sapiens, UniProt P07339); construct: Recombinant Cat D was expressed in CHO cells; made in house; host or cells: CHO cells; test: In vitro enzymatic Cathepsin D (Cat D) FRET assay; type: biochemical; details: read-out: CatD IC50
measurement_kind: IC50

In [3]: df
Out[3]:
                                   compound  readout_value
0  CC1(C)C(N)=N[C@](CF)(c2cc(NC(=O)c3cnc(OCC(F)F)cn3)ccc2F)CS1(=O)=O [Example 364]         858 µM
1  COc1cccnc1Oc1ccc(F)c([C@]2(C)CS(=O)(=O)C(C)(C)C(N)=N2)c1 [Example 297]         975 µM
2  COc1cnc2c(Nc3ccc(F)c([C@]4(CF)CS(=O)(=O)C5(CCC5)C(N)=N4)c3)nccc2n1 [Example 246]         811 µM

For reference, reported IC50 for CC1(C)C(N)=N[C@](C)(c2cc(Nc3nccc4cc(OCCF)cnc34)ccc2F)CS1(=O)=O [Example 421] stands at 1450 µM

Record CC#CCOc1cnc(C(=O)Nc2ccc(F)c([C@]3(C)CS(=O)(=O)C(C)(C)C(N)=N3)c2)cn1 [Example 26] . Reported IC50: 475 µM
